Listing of entries alongside the reported apparent Kd.
- Tested on: MS2 coat protein
- PROTOCOL_DETAILS: apparent Kd, MS2 coat protein; higher = weaker binding; RNA-MaP array; FMN 200 µM where present
- DETAILS: designed as: ON switch for flavin mononucleotide; no ligand
Number first, unit second.

CONSTRUCT_SEQUENCE: CUAUAGAUAUCAGGAUAUCUAUUUCCAACAUGAGGAUCACCCAUGUUGAGGAUCACCCAUGUAAAGGAGAAGGGAUAUCUAUAG
SYSTEM: MS2 coat protein
ENDPOINT_LABEL: apparent Kd
TEST_RESULT: 69.1 nM
//
CONSTRUCT_SEQUENCE: CGCUAAGAUGGGUUUAAUGGAGCAUAGGAUAUGCUUGUACAUGAGGAUCACCCAUGUUAUAUUGUGCAGAAGGGUGCAUUUGCG
SYSTEM: MS2 coat protein
ENDPOINT_LABEL: apparent Kd
TEST_RESULT: 457 nM
//
CONSTRUCT_SEQUENCE: UUGGACGUCGUAGGAUAUGUAGGAUAUUCCUACAUGAGGAUCACCCAUGUUGACAUGGAAGAAGGACAGGAGGACGAUGUCCAU
SYSTEM: MS2 coat protein
ENDPOINT_LABEL: apparent Kd
TEST_RESULT: 346 nM
//
CONSTRUCT_SEQUENCE: AAAGGUGAUUCAGGAUAUGUGUAGGAGGGCGGCGCAGAAGGGAAUCUAGCCCGACGUCAUACAUGAGGAUCACCCAUGUAUGCC
SYSTEM: MS2 coat protein
ENDPOINT_LABEL: apparent Kd
TEST_RESULT: 28.7 nM
//
CONSTRUCT_SEQUENCE: AGCUACGUUUCGUAGCAGCUAGGUGAGGAUAUCCUUUACAUGAGGAUCACCCAUGUAUAGCCAUGGGAGAAGGCGCCUAGAAAG
SYSTEM: MS2 coat protein
ENDPOINT_LABEL: apparent Kd
TEST_RESULT: 181 nM

Q: Entry AAAAUCUAUAGAGGAUAUCCAUACACUGCAUACGGAGAAGGCUAACAAUCAUGAGGACAUGAGGAUCACCCAUGUUGUGACCAU has what apparent Kd?
A: 19.9 nM

Q: Moving on to the next sequence: GGUACUAUCACAGGAUAUGCUUUCCUUUGGGAAGCAGAAGGGUGUAACAUGAGGAUCACCCAUGUGGUGCCCGGGCGUGAGCCC
A: 51.7 nM

Q: Moving on to the next sequence: UUCGGCGCACAGAAGGAUCGGUACAUGAGGAUCACCCAUGUAAGCAAAGAUAGGAUAUGUGGAGCUUACAGGGAAAAUGAACAA
A: 93.2 nM

Q: Moving on to the next sequence: CGCGAUGCGGUUGGCCCUGGGCGAGAGGAUAUGGGCAGCGAGACAUGAGGAUCACCCAUGUUUUCUCAGAAGGCUCGAGCAGGC
A: 181 nM

Q: Moving on to the next sequence: UGAGGACAUGAGGAUCACCCAUGUAGGCCACAAUCAGGAUAUGCAUUAAGGUACCUAAGAGUAGAAGGGAUUCGAG
A: 82.1 nM

Q: Moving on to the next sequence: UUCGGACUAUCAGGAUAUGGUGUAGCCUAGUAAAGGACAUGAGGAUCACCCAUGUACCAUUGGUGCCAGAAGGGAUGAUCCUAC
A: 141 nM

Q: Moving on to the next sequence: CGUUCACAUGAGGAUCACCCAUGUCAGAUUUGGUCAGGAUAUGGUCGGCUUCCGCUAUUGCCAGAAGGGACUGUUG
A: 30.5 nM

Q: Moving on to the next sequence: UGGUACUAGGGAGGAUAUGGGAAGAUACAUGAGGAUCACCCAUGUUUACGAAUGCCGAGAGGCAACUAGAAGGCCCUAGUACCU
A: 315 nM

Q: Moving on to the next sequence: AAUUAGGUCACAGGAUAUACAACAUCCAAUGCUGUAGAAGGGUGUCACAAUCAUAGCUGACAUGAGGAUCACCCAUGUAUCCAC
A: 202 nM
